Source of measurements: the supplement of paper PMC12042874

MEASUREMENT NOTES: amyloid nucleation score (Sup35N fusion, yeast selection) (log enrichment); library NNK1; higher = more nucleation; inactive = no reads after selection;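 note: zero at mode of non-aggregating sequences after 7 days selection at 30°C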
PARAMETER: amyloid nucleation score
Output spec: single numeric token, no unit.

Some solved entries appear below for comparison.
substance=LINHIS parameter="amyloid nucleation score" observed_value=0.444
substance=NSVIWRMG parameter="amyloid nucleation score" observed_value=1.42
substance=MLPQSSSRQLRVGCASLCNM parameter="amyloid nucleation score" observed_value=-0.148
substance=DRDASSLGFIFFFGCLEGLT parameter="amyloid nucleation score" observed_value=-0.93

In: May I ask what amyloid nucleation score has been recorded for ALPHSKFKAMVFRSLWRDRG ?
Out: 0.51

In: Entry IIASGHDFL please
Out: -0.732

====

MEASUREMENT NOTES: amyloid nucleation score (Sup35N fusion, yeast selection) (log enrichment); library NNK1; higher = more nucleation; inactive = no reads after selection
Everything with amyloid nucleation score lower than 0.1 is -1; everything else, including exactly 0.1, is 1.

Illustrative cases are given below, each with its answer.
monomer_sequence=WNQIAYNYRMLMLYFVTHYW category=1
monomer_sequence=RLRNLYLQSFDRLCAVCKGY category=1
monomer_sequence=RRRIEHAALVCV category=-1
monomer_sequence=ARSFETLLTTSRGGKVDWLT category=-1
monomer_sequence=INVIPDLD category=-1
monomer_sequence=WTIWVKDSLVPVCTSF category=-1

In: Does amyloid nucleation score meet or surpass 0.1 for TYGMYFLFSYVSVCQY ?
Out: 1

In: Entry VTLTYNYVRRTHMRRDVVAK please
Out: 1

====

MEASUREMENT NOTES: amyloid nucleation score (Sup35N fusion, yeast selection) (log enrichment); library NNK1; higher = more nucleation; inactive = no reads after selection
PARAMETER: amyloid nucleation score

monomer_sequence=LIDRHSFVRGRIRVSSVVVC observed_value=inactive
monomer_sequence=MGGRSPMELAISRVVVVVKW observed_value=inactive
monomer_sequence=QISRLKHYQTHVRMLLTLEG observed_value=-0.068

====

MEASUREMENT NOTES: amyloid nucleation score (Sup35N fusion, yeast selection) (log enrichment); library NNK2; higher = more nucleation; inactive = no reads after selection
PARAMETER: amyloid nucleation score

monomer_sequence=GWWNHGSSMGYFERVSSTFW observed_value=inactive
monomer_sequence=INTSELNVFRS observed_value=inactive
monomer_sequence=LNFIRCYVSPCVSFLSLYII observed_value=inactive

====

MEASUREMENT NOTES: amyloid nucleation score (Sup35N fusion, yeast selection) (log enrichment); library NNK2; higher = more nucleation; inactive = no reads after selection
PARAMETER: amyloid nucleation score
Output spec: single numeric token, no unit.

Some solved entries appear below for comparison.
substance=QNLCDCCKYQICSVLFMGHA observed_value=4.33
substance=SNFSMVCAVCV observed_value=0.454

In: May I ask what amyloid nucleation score has been recorded for TDASYNRMVTYFKWIISGYR ?
Out: -1.39

In: Entry LGFAGSVGICDRKTLDRREC please
Out: 4.91

In: Entry NWVWLKWRITQYFIHSASSS please
Out: 1.43

In: Entry KLGVKLASTLGISRLPHTTS please
Out: 0.827

In: Entry GPLLVIWVRTLGRELG please
Out: 0.841

====

MEASUREMENT NOTES: amyloid nucleation score (Sup35N fusion, yeast selection) (log enrichment); library NNK1; higher = more nucleation; inactive = no reads after selection
PARAMETER: amyloid nucleation score
Output spec: single numeric token, no unit.

substance=LDVTSDFCTMI parameter="amyloid nucleation score" observed_value=0.5
substance=CRVLWQWNSKLGCFAAALNL parameter="amyloid nucleation score" observed_value=-0.326
substance=FTIIFSTYISMVVVDLRVVP parameter="amyloid nucleation score" observed_value=-0.409
substance=SGAPYS parameter="amyloid nucleation score" observed_value=0.185

In: May I ask what amyloid nucleation score has been recorded for GQDSGSSNVFSSCICNLHVF ?
Out: 7.71

In: Entry HRSRLFAISERFEDIFYI please
Out: 0.611

In: Entry SCPAGFCCAGANKYHVLGV please
Out: -0.137

In: Entry NHSGSFKCGRIVSRYDD please
Out: -1.37

In: Entry GLYIFYLSNWLFHPRF please
Out: 0.339

====

MEASUREMENT NOTES: amyloid nucleation score (Sup35N fusion, yeast selection) (log enrichment); library NNK3; higher = more nucleation; inactive = no reads after selection
PARAMETER: amyloid nucleation score

substance=VNYDSVLYLVFLCIYLHKNR observed_value=inactive
substance=MPILLCLVHPPLYSSDPFQK observed_value=inactive
substance=VEFIEFMYDPSYYVSNQNST observed_value=inactive
substance=SSVSFQLEVCNQNVLYGIKI observed_value=inactive
substance=DIAKCNACGHENMFCRWMCV observed_value=inactive
substance=YASWKLRTN observed_value=inactive
substance=RLSHTMCRVLCHWVMSYSVS observed_value=inactive
substance=MGSSFGGVLVSISVSWGCGF observed_value=-0.012
substance=IDYAYGNVTNNPQKP observed_value=inactive
substance=IGMMYVIGIYLIGGNYSIR observed_value=inactive

In: May I ask what amyloid nucleation score has been recorded for GFFFSLFYWNHFRGMTRQRF ?
Out: 0.973

In: Entry SNWECLGGHENGINCRDI please
Out: inactive

In: Entry TCTYCRFRLSSLVSW please
Out: 0.366

In: Entry VRGYLYRCKAGSLACHPDPG please
Out: inactive

In: Entry LSYGRGVTVLYVLWSYFISR please
Out: inactive

====

MEASUREMENT NOTES: amyloid nucleation score (Sup35N fusion, yeast selection) (log enrichment); library NNK2; higher = more nucleation; inactive = no reads after selection
Everything with amyloid nucleation score lower than 0.2 is condition not met; everything else, including exactly 0.2, is condition met.

Illustrative cases are given below, each with its answer.
substance=KSQRKVIGTLLKVYWPWGCM category="condition met"
substance=FDFLSSFPRLWVRVEGIPCF category="condition not met"
substance=GADAGDCPRNHSCAMHAEGF category="condition met"
substance=SRVEVNALVLISYYPVLDTA category="condition met"
substance=WFYNVATYTHVAANTRVMKC category="condition met"

In: Does amyloid nucleation score meet or surpass 0.2 for GLLVSGMINWYRVFIRNILL ?
Out: condition not met

In: Entry WVASSSKQRTHLCSGVKWSV please
Out: condition met

In: Entry CKRFFYFLGIPATPDRSAFS please
Out: condition not met

In: Entry ASAGCTTGTLGGPHHRHMIV please
Out: condition met

In: Entry VIGASRRVWHRLKHKA please
Out: condition met

In: Entry RSPCIWLWFLNAACHKCVLM please
Out: condition met

In: Entry MRFSCWADIVRGDLIPHFVV please
Out: condition met

In: Entry CIGSLNVAVW please
Out: condition not met

In: Entry LARGCFAFN please
Out: condition not met

In: Entry KMQMLWTGVCRVLFVAPQPN please
Out: condition met

In: Entry CWLAMN please
Out: condition not met

In: Entry DKREQRLRQSQILMCGDGGF please
Out: condition not met

In: Entry VRWTTFRECWAGYGGYVIGR please
Out: condition met

In: Entry SSYKTLPAMLVARMLINYTV please
Out: condition not met

In: Entry SRFCSIIITMNVNHLPV please
Out: condition met

In: Entry NFILLDLLSLAICASRVLWA please
Out: condition met

In: Entry IRFNAYLRDEDYSKIREVLG please
Out: condition not met

In: Entry SVLLVSLDFSPITGYSKGGL please
Out: condition met

In: Entry RADTRDSGVVEACKGWSHEE please
Out: condition met

====

MEASUREMENT NOTES: amyloid nucleation score (Sup35N fusion, yeast selection) (log enrichment); library NNK2; higher = more nucleation; inactive = no reads after selection
Everything with amyloid nucleation score lower than 1 is Not satisfied; everything else, including exactly 1, is Satisfied.

Illustrative cases are given below, each with its answer.
substance=LFLGLFKLCNLASFMLWSWF category="Not satisfied"
substance=RLVPISKNRVGMNWSASLSL category="Not satisfied"
substance=CFCMINTCYSVINSFTYYGK category=Satisfied
substance=CRPGRLYVQIIFISMIRDNR category="Not satisfied"
substance=KRSLLQKLCC category="Not satisfied"
substance=IVWLMHSSSHRT category=Satisfied
substance=VRDFCRWASDVRCSNGWRVA category="Not satisfied"
substance=CDLIASQSVIAIVNIMIRHV category=Satisfied
substance=AFWKVRLYRRPG category=Satisfied
substance=VIHSPQMLSWSSHGNARFSK category="Not satisfied"

In: Does amyloid nucleation score meet or surpass 1 for CLYFFLSYRSCCINVFLGFC ?
Out: Not satisfied

In: Entry DIRMLERTNLIPYNKQVMGM please
Out: Not satisfied

In: Entry DLVVYLSPVGGTGRFYEVGA please
Out: Satisfied
